- Test system: iPS(Foreskin)-4-derived d8 HPTC-like cells
- Condition details: human, 16 h, 100 μg/ml
Result type: IL8 Expression Levels
Answers are plain numbers.

Solved cases below.
>  <Compound>
CC(=O)Nc1ccc(O)cc1

>  <IL8 Expression Levels>
0.5

$$$$
>  <Compound>
C[C@H]1O[C@H](O[C@H]2[C@H](O)[C@@H](O)[C@@H](O[C@H]3[C@H](O)[C@@H](O)C(O)O[C@@H]3CO)O[C@@H]2CO)[C@H](O)[C@@H](O)[C@@H]1N[C@H]1C=C(CO)[C@@H](O)[C@H](O)[C@H]1O (stereo partly drawn)

>  <IL8 Expression Levels>
0.4

$$$$

Next item in the queue.
INPUT: Fill: IL8 Expression Levels (iPS(Foreskin)-4-derived d8 HPTC-like cells) for this compound "CO[C@H]1/C=C/O[C@@]2(C)Oc3c(C)c(O)c4c(O)c(c(/C=N/N5CCN(C)CC5)c(O)c4c3C2=O)NC(=O)/C(C)=C\C=C\[C@H](C)[C@H](O)[C@@H](C)[C@@H](O)[C@@H](C)[C@H](OC(C)=O)[C@@H]1C"
OUTPUT: 9.7
